- experimental system: human BRD4 bromodomain II (Homo sapiens, UniProt O60885)
- Construct: human BRD4 bromodomain II [based on Genbank NM_058243, residues 349-460]; host or cells: E. coli
- procedure details: Bromodomain binding assay (AlphaScreen), BRD4 BDII
- protocol conditions: AlphaScreen assay, Table C2; read-out: BRD4 BDII IC50
pIC50: −log10 of the molar value.
Reported values of pIC50 for individual entries
property: pIC50

compound=O=C1CCCN1c1c(F)cc(-c2cccc(-c3cc(N4CCNCC4)no3)c2O)cc1F observed_measurement="7.00 to 8.00"
compound=CC(=O)Nc1ccc(-c2cccc(-c3ccnc(N)c3)c2O)cc1F observed_measurement="7.00 to 8.00"
compound=CC(=O)Nc1ccc(-c2cccc(-c3cc4ccccc4[nH]3)c2O)cc1F observed_measurement="< 7.00"
compound="Cn1ccn(-c2ccc(-c3cc(F)cc(-c4ccnc(N5CCN6CCCCC6C5)c4)c3O)cc2Cl)c1=O (centres unmarked)" observed_measurement="9.00 to 11.00"
compound=Cc1cccn(-c2ccc(-c3cc(F)cc(-c4ccnc(N5CCNCC5)c4)c3O)cc2Cl)c1=O observed_measurement="< 7.00"
compound=CN1CCN(c2ccc(-c3cccc(-c4ccc(CO)c(N5CCNCC5)c4)c3O)cc2Cl)C1=O observed_measurement="8.00 to 9.00"
compound=Cn1ccn(-c2ccc(-c3cc(F)cc(-c4cc(N5CCC[C@@H](N)C5)c5cn[nH]c5c4)c3O)cc2Cl)c1=O observed_measurement="8.00 to 9.00"
compound=Cn1ccn(-c2ccc(-c3cc(F)cc(-c4ccnc(N5CCN(CCCN)CC5)c4)c3O)cc2Cl)c1=O observed_measurement="9.00 to 11.00"
